Each entry below lists one item and its recorded MIC value.
System: S. aureus UBMS 90-3 (sensitive)
test_protocol: In vitro antibacterial evaluation, MIC by agar dilution
Type: cell-based
particulars: Staphylococcus aureus; agar dilution, Muller-Hinton II agar, 18 hours at 35° C.; S. aureus UBMS 90-3 (sensitive); read-out: MIC
Where a name gives a salt, the structure may show the parent alone.
measurement_label: MIC (µg/mL)

[[record]]
compound = "CN(C)c1ccc(O)c2c1C[C@H]1C[C@H]3[C@H](N(C)C)C(O)=C(C(N)=O)C(=O)[C@@]3(O)C(O)=C1C2=O [L, Minocycline hydrochloride, reference compound]"
measurement_label = "MIC"
unit_of_measure = "µg/mL"
operator = "="
observed_measurement = 0.03

[[record]]
compound = "CN(C)[C@@H]1C(O)=C(C(N)=O)C(=O)[C@@]2(O)C(O)=C3C(=O)c4c(cc(Cl)c(N)c4O)CC3CC12 (some centres unmarked) [G]"
measurement_label = "MIC"
unit_of_measure = "µg/mL"
operator = "<"
observed_measurement = 0.015

[[record]]
compound = "CN(C)[C@@H]1C(O)=C(C(N)=O)C(=O)[C@@]2(O)C(O)=C3C(=O)c4c(cc(Cl)c(NN)c4O)CC3CC12 (some centres unmarked) [J, monohydrochloride]"
measurement_label = "MIC"
unit_of_measure = "µg/mL"
operator = "="
observed_measurement = 0.03

[[record]]
compound = "CN(C)c1c(Cl)cc(O)c2c1CC1CC3[C@H](N(C)C)C(O)=C(C(N)=O)C(=O)[C@@]3(O)C(O)=C1C2=O (some centres unmarked) [B]"
measurement_label = "MIC"
unit_of_measure = "µg/mL"
operator = "="
observed_measurement = 0.06

[[record]]
compound = "CN(C)[C@@H]1C(O)=C(C(N)=O)C(=O)[C@@]2(O)C(O)=C3C(=O)c4c(cc(Cl)c(NC=O)c4O)CC3CC12 (some centres unmarked) [A]"
measurement_label = "MIC"
unit_of_measure = "µg/mL"
operator = "<"
observed_measurement = 0.015


----------
Listed below: log10(MIC) values for each entry.
Tested on: E. coli ATCC 25922
test_protocol: In vitro antibacterial evaluation, MIC by agar dilution
Type: cell-based
particulars: Escherichia coli, ATCC25922; agar dilution, Muller-Hinton II agar, 18 hours at 35° C.; E. coli ATCC 25922; read-out: MIC
Where a name gives a salt, the structure may show the parent alone.
measurement_label: log10(MIC) (log10 of the value in µg/mL)

[[record]]
compound = "CN(C)[C@@H]1C(O)=C(C(N)=O)C(=O)[C@@]2(O)C(O)=C3C(=O)c4c(O)cc(Cl)c([N+]#N)c4CC3CC12 (some centres unmarked) [D]"
target_or_test_system = "E. coli ATCC 25922"
observed_measurement = 1.20

[[record]]
compound = "CN(C)[C@@H]1C(O)=C(C(N)=O)C(=O)[C@@]2(O)C(O)=C3C(=O)c4c(cc(Cl)c(NN)c4O)CC3CC12 (some centres unmarked) [J, monohydrochloride]"
target_or_test_system = "E. coli ATCC 25922"
observed_measurement = 0.00

[[record]]
compound = "CN(C)[C@@H]1C(O)=C(C(N)=O)C(=O)[C@@]2(O)C(O)=C3C(=O)c4c(cc(Cl)c(NC=O)c4O)CC3CC12 (some centres unmarked) [A]"
target_or_test_system = "E. coli ATCC 25922"
observed_measurement = -0.92

[[record]]
compound = "CN(C)[C@@H]1C(O)=C(C(N)=O)C(=O)[C@@]2(O)C(O)=C3C(=O)c4c(O)cc(Cl)c(N)c4CC3CC12 (some centres unmarked) [Compound C, hydrochloride]"
target_or_test_system = "E. coli ATCC 25922"
observed_measurement = 0.30

[[record]]
compound = "CN(C)c1ccc(O)c2c1C[C@H]1C[C@H]3[C@H](N(C)C)C(O)=C(C(N)=O)C(=O)[C@@]3(O)C(O)=C1C2=O [L, Minocycline hydrochloride, reference compound]"
target_or_test_system = "E. coli ATCC 25922"
observed_measurement = -0.30


----------
System: S. aureus UBMS 88-4 (sensitive)
test_protocol: In vitro antibacterial evaluation, MIC by agar dilution
Assay type: cell-based
particulars: Staphylococcus aureus, 18 h
Structures can show the parent of a compound that is named as a salt.
Recorded MIC for the following compounds
measurement_label: MIC (µg/mL)

[[record]]
compound = "CN(C)[C@@H]1C(O)=C(C(N)=O)C(=O)[C@@]2(O)C(O)=C3C(=O)c4c(cc(Cl)c(NN)c4O)CC3CC12 (stereo partly shown) [J, monohydrochloride]"
observed_measurement = 0.06

[[record]]
compound = "CN(C)[C@@H]1C(O)=C(C(N)=O)C(=O)[C@@]2(O)C(O)=C3C(=O)c4c(O)cc(Cl)cc4CC3CC12 (stereo partly shown)"
observed_measurement = 0.25

[[record]]
compound = "COC(=O)Nc1c(Cl)cc2c(c1O)C(=O)C1=C(O)[C@]3(O)C(=O)C(C(N)=O)=C(O)[C@@H](N(C)C)C3CC1C2 (stereo partly shown)"
observed_measurement = 0.06

[[record]]
compound = "CN(C)c1c(Cl)c(NC=O)c(O)c2c1CC1CC3C(N(C)C)C(O)=C(C(N)=O)C(=O)C3(O)C(O)=C1C2=O.O=S(=O)(O)O (stereo not shown)"
observed_measurement = 0.12

[[record]]
compound = "CN(C)[C@@H]1C(=O)C(C(N)=O)=C(O)[C@@]2(O)C(=O)C3=C(O)c4c(O)cccc4[C@@](C)(O)[C@H]3C[C@@H]12 [K, Tetracycline hydrochloride, reference compound]"
observed_measurement = 0.12

[[record]]
compound = "CN(C)c1c(Cl)c(N)c(O)c2c1CC1CC3[C@H](N(C)C)C(O)=C(C(N)=O)C(=O)[C@@]3(O)C(O)=C1C2=O (stereo partly shown)"
observed_measurement = 0.12

[[record]]
compound = "CN(C)c1c(Cl)cc(O)c2c1CC1CC3[C@H](N(C)C)C(O)=C(C(N)=O)C(=O)[C@@]3(O)C(O)=C1C2=O (stereo partly shown)"
observed_measurement = 0.03


----------
In this section we review reported log10(MIC) values for a set of compounds.
Test system: S. faecal. ATCC 29212
test_protocol: In vitro antibacterial evaluation, MIC by agar dilution
Format: cell-based
particulars: 18 h
Where a name gives a salt, the structure may show the parent alone.
measurement_label: log10(MIC) (log10 of the value in µg/mL)

[[record]]
compound = "CN(C)[C@@H]1C(=O)C(C(N)=O)=C(O)[C@@]2(O)C(=O)C3=C(O)c4c(O)cccc4[C@@](C)(O)[C@H]3C[C@@H]12 [K, Tetracycline hydrochloride, reference compound]"
observed_measurement = 1.20

[[record]]
compound = "CN(C)[C@@H]1C(O)=C(C(N)=O)C(=O)[C@@]2(O)C(O)=C3C(=O)c4c(O)cc(Cl)c(N)c4CC3CC12 (stereo partly drawn) [Compound C, hydrochloride]"
observed_measurement = 0.90

[[record]]
compound = "COC(=O)Nc1c(Cl)cc2c(c1O)C(=O)C1=C(O)[C@]3(O)C(=O)C(C(N)=O)=C(O)[C@@H](N(C)C)C3CC1C2 (stereo partly drawn) [I]"
observed_measurement = -0.30

[[record]]
compound = "CN(C)c1c(Cl)cc(O)c2c1CC1CC3[C@H](N(C)C)C(O)=C(C(N)=O)C(=O)[C@@]3(O)C(O)=C1C2=O (stereo partly drawn) [B]"
observed_measurement = 0.00

[[record]]
compound = "CN(C)[C@@H]1C(O)=C(C(N)=O)C(=O)[C@@]2(O)C(O)=C3C(=O)c4c(cc(Cl)c(N)c4O)CC3CC12 (stereo partly drawn) [G]"
observed_measurement = -0.60

[[record]]
compound = "CN(C)c1c(Cl)c(NC=O)c(O)c2c1CC1CC3C(N(C)C)C(O)=C(C(N)=O)C(=O)C3(O)C(O)=C1C2=O.O=S(=O)(O)O (stereo not drawn) [F]"
observed_measurement = -1.22


----------
Tested on: S. aureus IVES 2943 (meth. resistant)
test_protocol: In vitro antibacterial evaluation, MIC by agar dilution
Assay type: cell-based
particulars: Staphylococcus aureus, 18 h
Structures can show the parent of a compound that is named as a salt.
measurement_label: MIC (µg/mL)

[[record]]
compound = "CN(C)c1c(Cl)cc(O)c2c1CC1CC3[C@H](N(C)C)C(O)=C(C(N)=O)C(=O)[C@@]3(O)C(O)=C1C2=O (stereo partly drawn)"
target_or_test_system = "S. aureus IVES 2943 (meth. resistant)"
operator = "="
observed_measurement = 1

[[record]]
compound = "CN(C)[C@@H]1C(O)=C(C(N)=O)C(=O)[C@@]2(O)C(O)=C3C(=O)c4c(O)cc(Cl)cc4CC3CC12 (stereo partly drawn)"
target_or_test_system = "S. aureus IVES 2943 (meth. resistant)"
operator = "="
observed_measurement = 4

[[record]]
compound = "CN(C)c1ccc(O)c2c1C[C@H]1C[C@H]3[C@H](N(C)C)C(O)=C(C(N)=O)C(=O)[C@@]3(O)C(O)=C1C2=O [L, Minocycline hydrochloride, reference compound]"
target_or_test_system = "S. aureus IVES 2943 (meth. resistant)"
operator = "="
observed_measurement = 4

[[record]]
compound = "CN(C)[C@@H]1C(O)=C(C(N)=O)C(=O)[C@@]2(O)C(O)=C3C(=O)c4c(O)cc(Cl)c(N)c4CC3CC12 (stereo partly drawn) [Compound C, hydrochloride]"
target_or_test_system = "S. aureus IVES 2943 (meth. resistant)"
operator = ">"
observed_measurement = 32

[[record]]
compound = "CN(C)[C@@H]1C(=O)C(C(N)=O)=C(O)[C@@]2(O)C(=O)C3=C(O)c4c(O)cccc4[C@@](C)(O)[C@H]3C[C@@H]12 [K, Tetracycline hydrochloride, reference compound]"
target_or_test_system = "S. aureus IVES 2943 (meth. resistant)"
operator = ">"
observed_measurement = 32

[[record]]
compound = "CN(C)[C@@H]1C(O)=C(C(N)=O)C(=O)[C@@]2(O)C(O)=C3C(=O)c4c(cc(Cl)c(N)c4O)CC3CC12 (stereo partly drawn)"
target_or_test_system = "S. aureus IVES 2943 (meth. resistant)"
operator = "="
observed_measurement = 8

[[record]]
compound = "CN(C)c1c(Cl)c(NC=O)c(O)c2c1CC1CC3C(N(C)C)C(O)=C(C(N)=O)C(=O)C3(O)C(O)=C1C2=O.O=S(=O)(O)O (stereo not drawn)"
target_or_test_system = "S. aureus IVES 2943 (meth. resistant)"
operator = "="
observed_measurement = 8

[[record]]
compound = "CN(C)c1c(Cl)c(N)c(O)c2c1CC1CC3[C@H](N(C)C)C(O)=C(C(N)=O)C(=O)[C@@]3(O)C(O)=C1C2=O (stereo partly drawn)"
target_or_test_system = "S. aureus IVES 2943 (meth. resistant)"
operator = "="
observed_measurement = 1

[[record]]
compound = "COC(=O)Nc1c(Cl)cc2c(c1O)C(=O)C1=C(O)[C@]3(O)C(=O)C(C(N)=O)=C(O)[C@@H](N(C)C)C3CC1C2 (stereo partly drawn)"
target_or_test_system = "S. aureus IVES 2943 (meth. resistant)"
operator = "="
observed_measurement = 4

